# Tested on: PRKX
# Condition notes: concentration: 1 μM, replicates: in singlicate; n = 1;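 further: KINOMEscan kinase panel screen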
Property: %Inh (%)
Return type: number; implicit unit %.

Task: Endpoint output: %Inh of `CCNc1nccc(-c2c(-c3ccc(F)cc3)ncn2C2CCN(C)CC2)n1` . Value?
Result: 0

Task: Look at this compound and give its reported %Inh. Cl.Cl.NCC(NC(=O)c1cc(-c2cccnc2)c(-c2ccnc3[nH]ccc23)s1)c1ccccc1 (stereo not drawn)
Result: 56

Task: Find the recorded %Inh belonging to `Cc1cccc(Nc2nc(NCCN)ncc2C(N)=O)c1` and report it.
Result: 35

Task: What value of %Inh has been recorded for this entry: `CN(C)CCNS(=O)(=O)c1ccc(-c2ccnc3[nH]ccc23)cc1`
Result: 68

Task: Returns the measured %Inh for the input compound. Input: `CN1CCN(Cc2ccc(NC(=O)Nc3ccc(N(C)c4ccnc(Nc5ccc(CS(C)(=O)=O)cc5)n4)cc3)cc2)CC1.Cl`
Result: 22

Next:
Task: Returns the measured %Inh for the input compound. Input: `Cc1ccc(C)c(NC(=O)Nc2ccc(C)c(-c3ccc(C(=O)Nc4ccncc4)cc3)c2)c1`
Result: 20

Task: Requested field: %Inh. Item: `Cn1cc(-c2ccc3c(c2)CCN3C(=O)Cc2cc(F)cc(F)c2F)c2c(N)ncnc21`
Result: 16

Task: Please give the measured %Inh for this compound: `CC(=O)Nc1cn2nc(Oc3cccc(NC(=O)c4cccc(C(F)(F)F)c4)c3)ccc2n1`
Result: 0

Task: GET /values?readout=%Inh&item= `Nc1ncc(-c2ccc3nccc(-c4ccncc4)c3c2)cc1S(=O)(=O)N1CCCCC1`
Result: 27

Task: Name the recorded %Inh for `O=C(Nc1n[nH]c2cc(-c3cccs3)ccc12)C1CC1` .
Result: 0

Task: Which %Inh is listed for `Cc1nn2c(=O)cc(N3CCO[C@H](C)C3)nc2n1Cc1cccc(Cl)c1Cl` ?
Result: 9

Task: What value of measured %Inh is listed for `COc1cc(Nc2ccnc3cc(-c4ccncc4)ccc23)cc(OC)c1OC.Cl` ?
Result: 0

###

Recorded %Inh, one value per entry.
# Test system: EPHB3
# Condition notes: concentration: 1 μM, replicates: in singlicate; n = 1
Write the number in % without appending the unit.

Take a look at these entries with their results.
Task: Consider the molecule shown here: `Fc1cc(Cl)ccc1Nc1ccnc2cc(-c3ccc(CN4CCOCC4)o3)ccc12` What is its recorded %Inh?
Result: 15

Task: Dear colleague, I am looking for the recorded %Inh of the following molecule: `COC(=O)Nc1nc2ccc(Oc3ccc(CC(=O)Nc4cc(C(F)(F)F)ccc4F)cc3)cc2[nH]1`
Result: 9

Task: So what's the measured %Inh for this one? `Cc1ccc(NC(=O)c2cccc(N3CCCCC3)c2)cc1-c1ccc(C(=O)NCC2CC2)cc1`
Result: 27

Task: Record request: %Inh value, item `Cc1ccccc1CC(=O)N1CCc2cc(-c3cn(C)c4ncnc(N)c34)ccc21`
Result: 0

Task: Could you tell me which %Inh is on file for COc1cc(Nc2nccc(N3CCC(NC(=O)Nc4ccc5c(c4)OCO5)C3)n2)cc(OC)c1OC (stereo not drawn) ?
Result: 6

Could you now look at the following molecule, please?
Task: So what's the measured %Inh for this one? `O=C(O)C(F)(F)F.O=c1[nH]ccc2nc(N[C@@H]3CCNC3)nc(Nc3cc(Cl)cc(Cl)c3)c12`
Result: 4

###

Readings of %Inh for the listed molecules
# System: MEK3
# Construct: gene MAP2K3
# Condition notes: concentration: 1 μM, replicates: in singlicate; n = 1
Write down the numeric answer in % and omit the unit.

Task: State the recorded %Inh for this entry: `Cc1cccc(Nc2nc(NCCN)ncc2C(N)=O)c1`
Result: 94.9

More entries:
Task: For `Cc1ccc(NC(=O)c2ccc(Cl)c(Cl)c2)cc1-c1ccc(C(=O)Nc2ccncc2)cc1` , what is its reported %Inh?
Result: 0

Task: Please report the recorded %Inh for `CS(=O)(=O)c1cccc(CNc2nc(Nc3ccc4c(c3)CCC(=O)N4)ncc2C(F)(F)F)c1` .
Result: 61

Task: Record request: %Inh value, item `COC(=O)Nc1nc2cc(Oc3ccc(NC(=O)Nc4cccc(SC)c4)cc3)ccc2[nH]1.Cl`
Result: 0

Task: What value of measured %Inh is listed for `Cn1cc(-c2ccc3c(c2)CCN3C(=O)Cc2cc(F)cc(F)c2F)c2c(N)ncnc21` ?
Result: 0

Task: Quick one: %Inh for `O=C(Nc1n[nH]c2nc(-c3ccccc3)ccc12)C1CC1` ?
Result: 0

Task: Requested read-out: %Inh. Entry: `COc1cccc(-c2nc(-c3ccccc3)[nH]c2-c2ccncc2)c1`
Result: 0

Task: Reported %Inh for `COc1cccc(NC(=O)NCCNc2ccnc(Nc3ccc(F)cc3)n2)c1` : what is it?
Result: 10

Task: What does the record list as %Inh for Cc1ccc(-c2ccc3occ(-c4ccc(S(C)=O)cc4)c3c2)nn1 (centres unmarked) ?
Result: 0

Task: Can you look up the measured %Inh of NCCC(NC(=O)c1cc(Br)c(-c2ccnc3[nH]ccc23)s1)c1ccccc1.O=C(O)C(F)(F)F.O=C(O)C(F)(F)F (centres unmarked) for me?
Result: 93.7

Task: Please give the measured %Inh for this molecule: `Fc1cc(Cl)ccc1Nc1ccnc2cc(-c3ccc(CN4CCOCC4)o3)ccc12`
Result: 0

Task: Requested read-out: %Inh. Entry: `CCn1cnc2c(NCc3ccccc3)ncnc21`
Result: 40

Task: Which %Inh is listed for Cl.Cl.NCC(NC(=O)c1cc(-c2cccnc2)c(-c2ccnc3[nH]ccc23)s1)c1ccccc1 (centres unmarked) ?
Result: 39

Task: Which %Inh is listed for `Cc1ccc(NC(=O)c2ccnc(N3CCCCC3)c2)cc1-c1ccc(C(=O)NCC2CC2)cc1` ?
Result: 45

###

# Tested on: ASK1
# Construct: gene MAP3K5
# Condition notes: concentration: 1 μM, replicates: in singlicate; n = 1
// %Inh lookup, one value per entry
All answers are understood in %, so give the number only.

Below: 8 compounds and their reported %Inh.
Task: # get_value(readout='%Inh', item= `COc1cccc(-c2nc(-c3ccccc3)[nH]c2-c2ccncc2)c1` )
Result: 2

Task: Would you kindly share the measured %Inh for `Cc1ccc(NC(=O)c2ccc(Cl)c(Cl)c2)cc1-c1ccc(C(=O)Nc2ccncc2)cc1` ?
Result: 16

Task: Which %Inh is listed for `Cl.N#CCc1ccc(Nc2nccc(Nc3ccc(Oc4ccccc4)cc3)n2)cc1` ?
Result: 0

Task: Reported %Inh, compound `Cc1ccc(NC(=O)c2ccnc(N3CCCCC3)c2)cc1-c1ccc(C(=O)NCC2CC2)cc1` : ____
Result: 0

Task: Could you tell me which %Inh is on file for `Cc1ccc(Nc2ccnc(Nc3ccc(C)c(F)c3)n2)cc1O.Cl` ?
Result: 0

Task: Suppose we examine the compound `CC(=O)Nc1cn2nc(Oc3cccc(NC(=O)c4cccc(C(F)(F)F)c4)c3)ccc2n1` ; what %Inh value has been reported?
Result: 0

Task: Suppose we examine the compound `O=C(Nc1c(F)cccc1F)c1cc(C(=O)c2ccccc2F)c[nH]1` ; what %Inh value has been reported?
Result: 8

Task: Query: %Inh; subject: `CCn1cnc2c(NCc3ccccc3)ncnc21`
Result: 0

---
Task: // query %Inh value for entry `Cn1cc(-c2ccc3c(c2)CCN3C(=O)Cc2cc(F)cc(C(F)(F)F)c2)c2c(N)ncnc21`
Result: 0

Task: Item `COC(=O)Nc1nc2ccc(Oc3ccc(NC(=O)Nc4cc(C(F)(F)F)ccc4F)cc3)cc2[nH]1.Cl` has what recorded %Inh?
Result: 12

Task: Recorded %Inh of `Fc1cc(Cl)ccc1Nc1ccnc2cc(-c3ccc(CN4CCOCC4)o3)ccc12` , please.
Result: 16

Task: Quick one: %Inh of `CNc1nccc(-c2ccc3c(N)n[nH]c3c2)n1` ?
Result: 0

Task: // lookup %Inh for `CN(c1ccc(F)c(NC(=O)c2cccc(OC(C)(C)C#N)c2Cl)c1)c1ccc2nc(NC(=O)C3CC3)sc2n1`
Result: 0

Task: Find the recorded %Inh belonging to `Cc1cc(-c2c(-c3ccc(F)cc3)ncn2CCCN2CCOCC2)nc(N)n1` and report it.
Result: 0

Task: What value of measured %Inh is listed for `Nc1ncnc2scc(-c3ccc(NC(=O)Cc4cc(F)ccc4F)cc3)c12.O=C(O)C(F)(F)F` ?
Result: 10

###

Reported %Inh values for a set of compounds
# Test system: FLT3-autoinhibited
# Condition notes: concentration: 1 μM, replicates: in singlicate; n = 1
Express your answer in %, writing the number without its unit.

Sample answers from the record:
Task: Quick one: %Inh for O=C(O)C(F)(F)F.O=c1[nH]ccc2nc(N[C@@H]3CCNC3)nc(Nc3ccc4c(c3)S(=O)(=O)CC4)c12 [GSK2181306] ?
Result: 79

Task: Item Cc1nn2c(=O)cc(N3CCO[C@H](C)C3)nc2n1Cc1cccc(Cl)c1Cl [GSK2373693] has what recorded %Inh?
Result: 13

Task: Param item = CSc1ccc(NC2=C(c3ccc(Cl)cc3)C(=O)NC2=O)cc1 [SB-317658] ; retrieve measured %Inh.
Result: 5

Task: If you can, please state the reported %Inh value of Cc1ccc(O)cc1Nc1ccnc2ccc(C(C)(C)C)cc12 [GW856805] .
Result: 0

Task: Given the compound COc1cccc(NC(=O)NCCNc2ccnc(Nc3ccc(F)cc3)n2)c1 [GSK1379879] , what is its reported %Inh?
Result: 0

More entries:
Task: Any idea what its %Inh is? The compound is Nc1ncc(-c2cn[nH]c2)c2scc(-c3ccc4c(c3)CCN4C(=O)Cc3ccccc3)c12 [GSK2593067]
Result: 13

Task: What value of measured %Inh is listed for Cl.Cl.NCC(NC(=O)c1cc(-c2cccnc2)c(-c2ccnc3[nH]ccc23)s1)c1ccccc1 (centres unmarked) [GSK1323434] ?
Result: 0

Task: Give its %Inh value. Item: CC(C)c1nc(-c2ccc(F)c(NS(=O)(=O)c3c(F)cccc3F)c2)c(-c2ccnc(Nc3ccc(N4CCOCC4)nc3)n2)s1 [GSK1804250]
Result: 0
